# assayed-target: BuChE from horse serum (Equus caballus, UniProt P81908)
# Construct: BuChE from horse serum (C4290-1KU; Sigma)
# Sequence (P81908 whole entry): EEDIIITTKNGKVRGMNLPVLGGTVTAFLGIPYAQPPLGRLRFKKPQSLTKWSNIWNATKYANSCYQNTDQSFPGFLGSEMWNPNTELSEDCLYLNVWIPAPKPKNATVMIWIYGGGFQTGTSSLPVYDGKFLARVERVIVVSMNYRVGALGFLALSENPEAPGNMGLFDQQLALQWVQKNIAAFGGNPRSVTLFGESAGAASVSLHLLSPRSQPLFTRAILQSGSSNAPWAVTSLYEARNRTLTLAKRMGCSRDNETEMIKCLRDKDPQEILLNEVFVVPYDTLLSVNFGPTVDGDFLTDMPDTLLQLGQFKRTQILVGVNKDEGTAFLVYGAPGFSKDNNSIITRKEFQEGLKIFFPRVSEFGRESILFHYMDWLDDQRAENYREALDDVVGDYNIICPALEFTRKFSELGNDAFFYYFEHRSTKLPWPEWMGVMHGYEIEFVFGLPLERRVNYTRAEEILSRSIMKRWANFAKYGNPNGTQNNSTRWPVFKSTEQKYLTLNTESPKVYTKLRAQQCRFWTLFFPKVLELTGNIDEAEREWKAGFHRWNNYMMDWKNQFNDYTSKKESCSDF
# assay-overview: biochemical
measured-property: log10 of IC50 (log10 of the value in µM)
Lab note - IC50 converted to log10 from values in µM.

response.value for O=S(=O)(F)Oc1cc(-c2ccccc2)nn1-c1ccc(F)cc1 [Compound K2] (field: log10 of IC50) = 0.24

response.value for CC(C)c1cc(OS(=O)(=O)F)n(-c2ccccc2)n1 [Compound K20] (field: log10 of IC50) = 1.05

response.value for Cc1ccc(-n2nc(-c3ccccc3)cc2OS(=O)(=O)F)cc1C [Compound K5] (field: log10 of IC50) = 0.35

response.value for Cc1cc(OS(=O)(=O)F)n(-c2ccc(C)c(C)c2)n1 [Compound K18] (field: log10 of IC50) = 0.52

response.value for Cc1cc(OS(=O)(=O)F)n(-c2ccc(F)cc2)n1 [Compound K14] (field: log10 of IC50) = 0.74

response.value for Cc1ccc(-n2nc(-c3ccccc3)cc2OS(=O)(=O)F)cc1 [Compound K4] (field: log10 of IC50) = 0.37

response.value for Cc1ccc(-n2nc(C(C)C)cc2OS(=O)(=O)F)cc1C [Compound K23] (field: log10 of IC50) = 0.60

response.value for CC(C)c1cc(OS(=O)(=O)F)n(-c2ccc(F)cc2)n1 [Compound K21] (field: log10 of IC50) = 0.84

response.value for O=S(=O)(F)Oc1cc(-c2ccccc2)nn1C1CCCCC1 [Compound K8] (field: log10 of IC50) = 0.77

response.value for CCCc1cc(OS(=O)(=O)F)n(-c2ccc(Cl)cc2)n1 [Compound K24] (field: log10 of IC50) = 0.66

response.value for O=S(=O)(F)Oc1cc(-c2ccccc2)nn1-c1ccccn1 [Compound K7] (field: log10 of IC50) = 1.00

response.value for O=S(=O)(F)Oc1cc(-c2ccccc2)nn1-c1ccccc1 [Compound K1] (field: log10 of IC50) = 0.36

response.value for Cc1cc(OS(=O)(=O)F)n(-c2ccccc2)n1 [Compound K13] (field: log10 of IC50) = 0.96

response.value for O=S(=O)(F)Oc1cc(C2CC2)nn1-c1ccccc1 [Compound K26] (field: log10 of IC50) = 1.16

response.value for CCCc1cc(OS(=O)(=O)F)n(-c2ccc(OC)cc2)n1 [Compound K25] (field: log10 of IC50) = 0.54

response.value for O=S(=O)(F)Oc1cc(-c2ccccc2)nn1-c1ccc(Cl)cc1 [Compound K3] (field: log10 of IC50) = -0.10

response.value for O=S(=O)(F)Oc1cc(-c2ccccc2)n[nH]1 [Compound K10] (field: log10 of IC50) = 0.84

response.value for Cc1cc(OS(=O)(=O)F)n(-c2ccc(Br)cc2)n1 [Compound K16] (field: log10 of IC50) = 0.88

response.value for Cc1cc(OS(=O)(=O)F)n(-c2ccc(Cl)cc2)n1 [Compound K15] (field: log10 of IC50) = 0.72

response.value for Cc1cccc(-n2nc(C)cc2OS(=O)(=O)F)c1 [Compound K17] (field: log10 of IC50) = 1.28

response.value for Cc1ccc(-n2nc(C(C)C)cc2OS(=O)(=O)F)cc1 [Compound K22] (field: log10 of IC50) = 1.26

Values from paper PMC9448382
